Each recorded value in this set is attributed to patent US20230068663A1.

- Assayed System: T1, LILRB1
- T1 construct: also called LILRB1 reporter cells; not shown: transmembrane/intracellular domains of PILRb, the display part of the chimeric reporter receptor
- T1 sequence (chain, as listed by the source limits assumed): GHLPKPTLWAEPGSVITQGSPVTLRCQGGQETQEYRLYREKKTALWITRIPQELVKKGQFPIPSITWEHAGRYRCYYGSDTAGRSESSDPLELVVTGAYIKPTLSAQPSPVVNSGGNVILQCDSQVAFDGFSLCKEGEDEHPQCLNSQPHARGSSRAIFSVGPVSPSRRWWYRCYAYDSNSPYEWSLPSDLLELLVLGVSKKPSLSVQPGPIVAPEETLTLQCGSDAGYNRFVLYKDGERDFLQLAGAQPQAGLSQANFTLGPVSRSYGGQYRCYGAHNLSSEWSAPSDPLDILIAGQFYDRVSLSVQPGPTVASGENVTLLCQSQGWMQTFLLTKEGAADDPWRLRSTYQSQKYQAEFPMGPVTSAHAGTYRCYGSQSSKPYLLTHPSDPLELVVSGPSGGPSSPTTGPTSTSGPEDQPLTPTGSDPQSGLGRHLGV
- Experimental Details: flow cytometry, reporter cells
- Procedure: FIG. 29. Binding of LILRB2 antibodies on reporter cell line expressing ectodomain of LILR family proteins on cell surface. Bound antibodies were detected with anti-human Fc-specific secondary antibody (2nd Ab) conjugated to AF647. […] All incubations were performed for 30 minutes at 4° C. Data shown is mean fluorescence intensity after sample acquisition in flow cytometer.
Assay Readout: MFI

[[record]]
binder = "B2-16 (antibody, V domains shown, also called B2-16_HC; B2-16_LC) VH: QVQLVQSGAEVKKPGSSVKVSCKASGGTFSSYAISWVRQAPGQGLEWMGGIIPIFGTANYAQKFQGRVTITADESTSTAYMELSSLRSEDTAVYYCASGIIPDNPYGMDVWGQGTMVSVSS VL: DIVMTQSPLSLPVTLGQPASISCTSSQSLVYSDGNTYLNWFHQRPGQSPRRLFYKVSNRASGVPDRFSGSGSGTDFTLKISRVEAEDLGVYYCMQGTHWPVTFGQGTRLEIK"
assay_readout = "MFI"
result_value = 10

